Data provenance is PubChem BioAssay (NCATS).

Test system: KB-3-1
assay: Cytotoxic Profiling of Annotated Libraries Using Quantitative High-Throughput Screening (AID 1296008); further: on the % scale 0 is the no-effect control and ±100 the full control effect; nearly all actives have a fitted effect of over 60% in size
run.conditions: Five cell lines viability, CellTiter-Glo ATP luminescence, 48-72 h; stronger effect = lower value
Results filed as inconclusive are left out.
Provide the reported max response of each item.
One number for each entry, in %.

INSERT INTO assay_data (compound, property_measured, measured_result) VALUES
  ('CC1CCC(=O)CC(SCC(O)C(=O)O)CCC(=O)O1 (stereo unspecified)', 'max response', -25.6),
  ('Cc1c(C2=CCN(C(=O)N(C)C(C)C)CC2)nnn1-c1cccnc1F', 'max response', 7.23),
  ('CN1CCN(CCCN2c3ccccc3Sc3ccccc32)CC1', 'max response', -4.85),
  ('NS(=O)(=O)c1ccc(N2CCN(CC[C@@H]3OCCc4ccccc43)CC2)cc1', 'max response', -10.3),
  ('CCn1c(=O)n([C@H]2CCCN(c3nccc(-c4cc5ccccc5o4)n3)C2)c2ccccc21', 'max response', -9.5);

Parameters: items (list). Returns: max response for each item.
1. C=C1C(=O)OC2C1CCC1(C)C(O)CCC(=C)C21 (stereo unspecified)
2. COc1ccc(S(=O)(=O)Nc2cc(Cl)cc(Cl)c2OC)cc1N1CCNCC1
3. CC(C)Nc1nc(Nc2ccccc2)nc(-c2ccccc2)n1
4. CCC(=O)Oc1ccc2c(c1)CC[C@@H]1[C@@H]2CC[C@]2(C)[C@@H](OC(=O)CC)CC[C@@H]12
5. O=C(Nc1ccc(N(Cc2ccsc2)C(=O)Cn2nnc3ccccc32)cc1)C1CC1
6. O=S(=O)(N[C@H]1CCCC[C@@H]1N1CCOCC1)c1ccc(Cl)cc1

Result:
1: 7.7; 2: -5.04; 3: -2.52; 4: -26.3; 5: 6.41; 6: 1.51

----------
assay: qHTS drug screen for cell cycle checkpoint inhibitors in PARPi-resistant BRCA-mutant ovarian cancer cell lines. (AID 1963452)
run.conditions: PEO1/OlaR viability, CellTiter-Glo luminescence, 96 h; measured here: PEO4 Z-AUC; stronger effect = lower value
Excerpt: Women's Malignancies Branch, Center for Cancer Research (CCR), National Cancer Institute (NCI), National Institutes of Health (NIH), Bethesda, MD Poly (ADP-ribose) polymerase inhibitors (PARPis) have changed the treatment paradigm in breast cancer gene (BRCA) - mutant high-grade serous ovarian carcinoma (HGSC). […] 6; Detection; Luminescence, PHERAstar (BMG Labtech) plate reader. […] 6. Luminescence readings were taken using PHERAstar (BMG Labtech). […]
property.measured: Z-AUC
Give bare numbers.

Worked examples, 3 compounds total:
INSERT INTO measurements (smiles_str, measured_result) VALUES
  ('CCn1c(=O)c(-c2ccc(-c3cncs3)cc2Cl)cc2cnc(Nc3ccc(N4CCN(C)CC4)cc3)nc21', -0.961),
  ('O=C(c1c(F)ccc(NS(=O)(=O)N2CC[C@@H](F)C2)c1F)c1c[nH]c2ncc(-c3cnc(C4CC4)nc3)cc12', 0.486),
  ('CC1(C)CN(C(=O)c2ccc(-c3cccc4nc(NC(=O)C5CC5)nn34)cc2)C1', 1.32);

Turning now to a further compound:
Task: For the compound shown here, CCN(c1cc(-c2ccc(CN3CCOCC3)cc2)cc(C(=O)NCc2c(C)cc(C)[nH]c2=O)c1C)C1CCOCC1 , give the reported Z-AUC.
Result: 0.0284

----------
assay: Primary qHTS for inhibitors of nuclear receptor binding SET domain protein 2 (NSD2) in an RCH-ACV wild type WT cells (2C) (AID 1645877); further: nearly all actives have a fitted effect of over 70% in size; further: potency means the concentration at half of the fitted maximal effect
run.conditions: RCH-ACV (leukaemia line) NSD2 WT (2C) viability, CellTiter-Glo, 72 h; series mostly up to 44.9 µM
Results filed as inconclusive are left out. Calls of active or inactive are those of the source. The call rests on the fitted dose curve; in most records, active means well fitted inhibition curve with a large enough effect; inconclusive means small, poorly fitted or top-dose-only effect; inactive means no such curve, though single readings can be large or run the other way.
property.measured: Potency

INSERT INTO measurements (compound, property_measured, measured_result) VALUES
  ('C=C[C@@]1(C)C=C2C(=O)C(O)=C3[C@](C)(C(=O)O)CC[C@@H]4C[C@]34[C@]2(O)C(=O)C1', 'Potency', '2.53 µM (active)'),
  ('C=C(C)C(=O)O[C@H]1/C(C=O)=C\CC/C(CO)=C/[C@H]2OC(=O)C(=C)[C@@H]2[C@@H]1OC', 'Potency', '2.53 µM (active)'),
  ('NS(=O)(=O)c1ccc(N2CCN(CC[C@@H]3OCCc4ccccc43)CC2)cc1', 'Potency', 'inactive'),
  ('COc1cc2c(cc1NS(=O)(=O)c1ccc(Br)cc1C)n(C)c(=O)n2C', 'Potency', '7.28 µM (active)'),
  ('C=C1C(=O)OC2/C=C(\CO)CC/C=C(\C=O)C(OC)C(OC(=O)C(C)CC)C12 (configuration not stated)', 'Potency', '5.02 µM (active)'),
  ('C[C@@H]1O[C@@H](O[C@H]2[C@@H]3C=CO[C@@H](O[C@@H]4O[C@H](CO)[C@@H](O)[C@H](O)[C@H]4O)[C@@H]3[C@@]3(CO)O[C@@H]23)[C@H](O)[C@H](OC(=O)/C=C/c2ccccc2)[C@H]1O', 'Potency', '5.41 µM (active)'),
  ('O=C(NCC1(N2CCN(c3ccccc3)CC2)CCOCC1)c1cccnc1Sc1ccccc1', 'Potency', 'inactive'),
  ('COc1cc2c(NC3CCN(C(C)C)CC3)nc(N3CCC(F)(F)CC3)nc2cc1OCCCN1CCCC1', 'Potency', '11.5 µM (active)'),
  ('C=C1CC2OC(=O)C(=C)C2C(OC(=O)/C(C)=C\C)CC2(C)OC1=CC2=O (configuration not stated)', 'Potency', '1.01 µM (active)'),
  ('COc1cc(/C=C/C(=O)NCCn2c(C(F)(F)F)cc3ccccc32)cc(OC)c1OC', 'Potency', 'inactive');

Parameters: items (list). Returns: Potency for each item.
1. Cn1nc(-c2ccc(C(F)(F)F)cc2)nc2c(=O)n(C)c(=O)nc1-2
2. COc1cc(CCO)ccc1O[C@@H]1O[C@H](CO)[C@@H](O)[C@H](O)[C@H]1O
3. CCC/C=C\C=C/CCc1cc(O)c([C@@H]2O[C@H](CO)[C@@H](O)[C@H](O)[C@H]2O)c(O)c1C(=O)OC

Result:
["2.3 µM (active)", "inactive", "inactive"]

Parameters: items (list). Returns: Potency for each item.
1. CCOC(=O)C1(CCOc2ccccc2)CCN(Cc2ccc(O)c(Cl)c2)CC1
2. C=C1CC2[C@@]3(C)C=CC(=O)C(C)(C)C3=C(O)C(=O)[C@@]2(C)C2(C(=O)OC)C(=O)C(C)OC(=O)[C@@]12C (some centres not stated)
3. CC1CCCC(O)CC(=O)c2c(O)cc(O)cc2CC(=O)O1 (configuration not stated)
4. CN(C)C(=O)NC1(c2ccccc2)CCN(CCC[C@]2(c3ccc(Cl)c(Cl)c3)CCCN(C(=O)c3ccccc3)C2)CC1

Result:
23 µM (active)
8.93 µM (active)
5.05 µM (active)
2.9 µM (active)

----------
Tested on: CAOV3
assay: Primary qHTS to identify gynecologic anti-cancer compounds using libraries of approved drugs and bioactive compounds (AID 1345084); further: nearly all actives have a fitted effect of over 55% in size
run.conditions: Gynecologic cancer cell panel viability, ATPlite luminescence, 48 h; series mostly up to 57.5 µM
Results filed as inconclusive are left out. Calls of active or inactive are those of the source. Calls come from the whole dose curve; as a rule, active = well fitted cell-killing curve with a large enough effect; inconclusive = small, poorly fitted or top-dose-only effect, or effect the other way; inactive = flat fitted curve, though single readings scatter.
Valid outcomes are listed here; reply with one: active, inactive

Task: Tell me the assay call for COc1cccc(-c2cn(-c3ccc(CCN4CCC(O)CC4)cc3)c3ncnc(N)c23)c1 please.
Result: active

Task: Tell me the assay call for Cn1cc(-c2ccc(F)c(C(F)(F)F)c2)nc1C1CCN(c2ncnc3[nH]ncc23)CC1 please.
Result: inactive

----------
System: HaCat
assay: Cytotoxic Profiling of Annotated Libraries Using Quantitative High-Throughput Screening (AID 1296008); further: on the % scale 0 is the no-effect control and ±100 the full control effect; nearly all actives have a fitted effect of over 60% in size
run.conditions: Five cell lines viability, CellTiter-Glo ATP luminescence, 48-72 h; stronger effect = lower value
Inconclusive results are not listed. *1 amine or outer side, *2 acyl side, *3 side chain or, on linkers, in order; H or OH if unused. Where a SMILES comes first, the peptide text is derived from it. Bridges are numbered along the chain shown (N, C = ends). [ ]: non-standard residue; d: D form. The star is where a group is joined. pTerphenylCO(4''-OnC5H11) = CCCCCOc1ccc(-c2ccc(-c3ccc(C(=O)*)cc3)cc2)cc1; Orn(4R-OH,5R-OH) = O=C([C@H](C[C@@H](O)[C@@H](O)N[*:3])N[*:1])[*:2]; hTyr(3S-OH,4S-OH) = N[C@H](C(=O)O)[C@H](O)[C@@H](O)c1ccc(O)cc1; Pro(3S-OH,4S-Me) = C[C@H]1CN[C@H](C(=O)O)[C@H]1O; Hyp = O=C(O)[C@@H]1C[C@@H](O)CN1
property.measured: max response (%)
One number for each entry, in %.

Worked examples, 5 compounds total:
INSERT INTO assay_data (compound, measured_result) VALUES
  ('CC(=O)O[C@@H]1[C@@H](O)[C@H](O[C@@H]2[C@@H](O)[C@@H](O)[C@H](O[C@H]3[C@H](O[C@H]4[C@H](O[C@H]5CC[C@@]6(C)C(CC[C@]7(C)C6CC=C6[C@@H]8CC(C)(C)CC[C@]8(C(=O)O)CC[C@]67C)[C@]5(C)CO)O[C@H](CO)[C@@H](O)[C@@H]4O)OC[C@@H](O)[C@@H]3O)O[C@H]2C)OC[C@H]1O (stereo not given in full)', 3.54),
  ('Cc1ccc(N2CCN(CCC3NC(=O)c4ccccc43)CC2)cc1C (stereo not given)', -0.27),
  ('O=C(N[C@H]1CCC[C@H](CO)C1)C1CCN(c2nc3cc(Cl)c(-c4ccc(Cl)cc4)cc3o2)CC1', -4.31),
  ('C=C1C(=O)O[C@@H]2/C=C(\CO)CC/C=C(/C=O)C[C@H](O)[C@@H]12', -0.314),
  ('O=C(NCc1ccccc1)c1ccc2c(=O)n(-c3cccc(C(F)(F)F)c3)c(=S)[nH]c2c1', -51.3);

Parameters: items (list). Returns: max response for each item.
1. C=C1/C(=C/C=C2\CCC[C@]3(C)[C@@H]([C@@H](C)OCCC(O)(CC)CC)CC[C@@H]23)C[C@@H](O)C[C@@H]1O
2. CS/C=C/C(=O)O[C@@H]1CCC2=CC(=O)C(=C(C)C)C[C@]2(C)[C@H]1C
3. C[C@@H]1COCCN1c1cc(=O)n2c(n1)N(Cc1cncc(Cl)c1)[C@H](C(F)(F)F)CC2

Result:
[-5.69, -6.05, -6.64]

Parameters: items (list). Returns: max response for each item.
1. CN(C)CC#CCCC(=O)C(O)(c1ccccc1)C1CCC1 (stereo not given)
2. COc1cc(CCc2cc(NC(=O)c3ccc(N4CC(C)NC(C)C4)cc3)n[nH]2)cc(OC)c1 (stereo not given)
3. CC(C)C(C)C(O)C1CC23CC(=O)C4(O)C(=C2CCC3C1C)C=CC1(O)CC(O)CCC14C (stereo not given)
4. Cc1cc(-c2nc(-c3ccc(OC(F)(F)F)cc3)no2)nn1Cc1ccnc(N2CCN(C3CC3)CC2)c1
5. C#CCCCn1cc(-c2cccc3c2N[C@H](C)CC(=O)N3)cn1

Result:
1: 3; 2: 4.79; 3: 2.09; 4: 4.17; 5: 0.674

Parameters: items (list). Returns: max response for each item.
1. CC1=C(c2ccc(NC(=O)c3c(F)cccc3F)cc2)CN(c2nccs2)CC1
2. CCCCCOc1ccc(-c2ccc(-c3ccc(C(=O)N[C@H]4C[C@@H](O)[C@@H](O)NC(=O)[C@@H]5[C@@H](O)[C@@H](C)CN5C(=O)[C@H]([C@@H](C)O)NC(=O)[C@H]([C@H](O)[C@@H](O)c5ccc(O)cc5)NC(=O)[C@@H]5C[C@@H](O)CN5C(=O)[C@H]([C@@H](C)O)NC4=O)cc3)cc2)cc1 ({pTerphenylCO(4''-OnC5H11)}-[Orn(4R-OH,5R-OH)]T[Hyp][hTyr(3S-OH,4S-OH)]T[Pro(3S-OH,4S-Me)]; lactam 1-C)

Result:
[-2.64, 3.64]
